From: ChEMBL document CHEMBL1133851

Where a SMILES comes first, the peptide text is derived from it. [ ]: non-standard residue; d: D form. ξ: configuration not given here. Dab = NCC[C@H](N)C(=O)O; ξDap = NCC(N)C(=O)O
System: Hairpin ribozyme RNA | Read-out: K obs;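 further: observed rate of hairpin ribozyme RNA cleavage, measured at 2 mM with 0.5 µM Mg2+ present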

stdin: Requested field: K obs. Item: NC[C@@H](N)C(=O)O
stdout: 0.02

stdin: Now the same for NCC[C@H](N)C(=O)NC(CN)C(=O)O (stereo partly specified) (H-[Dab]-[ξDap]-OH)
stdout: 0.02

stdin: How about NCCC[C@@H](N)C(=O)O ?
stdout: 0.0086

stdin: Do the same for N[C@H](Cc1c[nH]cn1)C(=O)O please
stdout: 0.0085

stdin: Also NCCCC[C@H](N)C(=O)O ?
stdout: 0.016

***
stdin: So what does the record say about K obs for NCCCNCCCCNCCCN ?
stdout: 0.073
